Target: T1, IL-17 (IL-17A) (Homo sapiens, UniProt Q16552 Q16552:24-155)
T1 sequence: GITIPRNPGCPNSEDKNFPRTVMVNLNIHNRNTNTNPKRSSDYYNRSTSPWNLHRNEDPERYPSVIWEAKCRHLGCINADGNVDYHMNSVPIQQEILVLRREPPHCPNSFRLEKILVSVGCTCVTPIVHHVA
Test: SPR
Details: tags: Peprotech; chain copies: 2
measure-name: binding result

Some binders with known binding result results, for comparison:
                                     binder  result
0  GGAUAGCGAAGUCAUUGAGCGCC (ssRNA, 2'-F pyrimidines; 2'-OMe at a3) [SEQ 40-2]   binds
1  GGAUAGCGAAGACAUUGAGCGCC (ssRNA, 2'-F pyrimidines; 2'-OMe at a12) [SEQ 48]   binds
2  GGAUAGAGAAGUCAUUGAGCGCC (ssRNA, 2'-F pyrimidines; 2'-OMe at a7) [SEQ 47]   binds
3  GGAUAGCGAAGUCAUUGAGCGCC (ssRNA, 2'-F pyrimidines; 2'-OMe at g19) [SEQ 40-4]   binds
4  GGAUAGCGAAGUCAUCGAGCGCC (ssRNA, 2'-F pyrimidines) [SEQ 45]   binds
5  GGAUAGCGAAGUCAUUGAGCACC (ssRNA, 2'-F pyrimidines) [SEQ 46]   binds

Attention now shifts to the item below.
(Q) Query (binder): GGAUAGCGAAGUCAUUGAGCGCC (ssRNA, 2'-F pyrimidines except c7; 2'-OMe at c7) [SEQ 40-3] ; field requested: binding result
(A) binds
